experiment: Pharmacokinetics of CorA in plasma of CD-1 mice; type: in vivo; details: female, mouse; plasma; 30 mg/kg IP (BID); CD-1 mice; mean ± SD
readoutName: half-life (h)

• C/C=C/C/C=C(\C)C(O)CC/C(C)=C/C=C(\C)C(=O)c1c(O)cc([C@H](C)CC/C=C/NC(=O)OC)oc1=O (stereo partly shown) = 2.33

----------
assay: Biodistribution of CorA to organs/tissues of CD-1 mice (LC-MS/MS); assay type: in vivo; conditions: female, CD-1, mouse, thigh muscle; thigh; 30 mg/kg IP
readoutName: Cmax (ng/g)

• C/C=C/C/C=C(\C)C(O)CC/C(C)=C/C=C(\C)C(=O)c1c(O)cc([C@H](C)CC/C=C/NC(=O)OC)oc1=O (stereo partly shown) [CorA, Corallopyronin A] = 100
